Source: ChEMBL document CHEMBL1201862

SYSTEM: FAD-linked sulfhydryl oxidase ALR (Homo sapiens)
Sequence (P55789 whole entry): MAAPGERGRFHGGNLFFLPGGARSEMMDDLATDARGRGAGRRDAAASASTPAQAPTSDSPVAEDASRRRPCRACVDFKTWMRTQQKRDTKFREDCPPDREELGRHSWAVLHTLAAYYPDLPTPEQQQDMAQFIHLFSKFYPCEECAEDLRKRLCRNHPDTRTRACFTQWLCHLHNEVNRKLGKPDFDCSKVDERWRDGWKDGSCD
TEST_DETAILS: ALR-catalysed DTT oxidation blockers – biochemical, H2O2 detection, luminescence, cherry-pick, dose response (AID 493248)
The source made the active and inactive calls. Rule as the data show it: actives have a measured AC50 and inactives only a lower limit.
RECORDED_METRIC: AC50

Here is how some compounds turned out for AC50.
In [3]: df
Out[3]:
                                   compound              value
0        CN(C)c1ccc(/C=N/NC(=O)c2ccccn2)cc1   35.5 µM (active)
1  Cc1cc(N2CCCC2)ccc1NC(=O)CN1C(=O)NC2(CCCCC2)C1=O  0.644 µM (active)
2  Cc1ncsc1CCC(=O)N1CCCC(Nc2ccc(C(C)C)cc2)C1 (stereo unspecified)   3.68 µM (active)
3  COc1ccc(OC)c(C2C(C#N)=C(N)Oc3cc(N)ccc32)c1 (stereo unspecified)    3.1 µM (active)
4  CC(C)c1ccc(NC2CCCN(C(=O)c3cc(C(C)C)nc(N)n3)C2)cc1 (stereo unspecified)  0.714 µM (active)

Could you now consider this next compound?
Lookup: Please report the recorded AC50 for N#Cc1ccc(CSc2nnc(NC(=O)c3ccc(O)nc3)s2)cc1 .
Found: 0.679 µM (active)
